TARGET UNDER TEST: T1, PUF4 RNA-binding domain (Saccharomyces cerevisiae, UniProt P25339 537-888)
T1 sequence: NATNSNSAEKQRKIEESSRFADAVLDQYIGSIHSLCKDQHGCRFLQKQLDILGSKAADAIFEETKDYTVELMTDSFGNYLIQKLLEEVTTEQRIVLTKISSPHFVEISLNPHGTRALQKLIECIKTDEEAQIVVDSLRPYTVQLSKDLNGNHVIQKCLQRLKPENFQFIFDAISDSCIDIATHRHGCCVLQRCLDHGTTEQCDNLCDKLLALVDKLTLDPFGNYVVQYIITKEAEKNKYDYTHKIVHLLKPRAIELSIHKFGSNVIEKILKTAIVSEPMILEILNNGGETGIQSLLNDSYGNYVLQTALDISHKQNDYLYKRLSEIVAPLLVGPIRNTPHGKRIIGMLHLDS
EXPERIMENTAL DETAILS: Mg; RNA-MaP; 20 mM Na-HEPES pH 7.4, 30 mM KOAc, 0.75 mM MgCl2, 0.1% Tween-20, 5% glycerol, 0.1 mg/mL BSA, 2 mM DTT; 25 C; 0.0125-409.6 nM protein
STUDY CONDITIONS: tags: N-His6-TEV cleaved; C-SNAP kept, Cy3B-labelled; label: tethered on chip by stalled RNA polymerase
# Kd per entry

Here's what some known entries look like.
Ib_S4_P4E.1_K4.1_C4.1_H4.1_[T1G]_[G2T]_A4.1_F4.1_T4.1 (ssRNA) RNA: UUUGACAACUGAUCGUUCUUUCUGUUAUAUUAUUCUUUCUCGAUCAGUUGUCUUU	41.2 nM
Ic_S4_P4E.1_K4.1_C4.1_H4.1_A4.1_[T7G]_F4.1_[T8C]_[A9C]_T4.1 (ssRNA) RNA: UUUGACAACUGAUCGUUCUUUCUUGUAUAGCCUUCUUUCUCGAUCAGUUGUCUUU	87.3 nM

[ask] # lookup: Kd of Ib_S4_P4E.1_K4.1_C4.1_H4.1_[A4G]_A4.1_[A6G]_F4.1_T4.1 (ssRNA) RNA: UUUGACAACUGAUCGUUCUUUCUUGUGUGUUAUUCUUUCUCGAUCAGUUGUCUUU
[reply] 10.8 nM
